Please respond with reported TGI for every item in the list.
# System: DLD-1 colon
# assay overview: NCI tumour cell line growth inhibition, 48 h

## Task TGI of `Cn1cnc([N+](=O)[O-])c1Sc1ccccn1` on DLD-1 colon?
## Result > 100 µM

## Task Entry Nc1nc2c(ncn2C2OC(CO)C(O)C2N)c(=O)[nH]1 (centres undefined) , system DLD-1 colon: what TGI was measured?
## Result > 100 µM

## Task TGI of `CC(C)(C)N=C1CC(C)(C)c2ccccc2C(=Nc2ccccc2)S1` on DLD-1 colon?
## Result > 100 µM

## Task Look up TGI with DLD-1 colon for this compound: `Cc1cc(NS(=O)(=O)c2ccc(Nc3c4ccccc4nc4c(C(=O)Nc5ccc(S(=O)(=O)N=C(N)N)cc5)cccc34)cc2)no1`
## Result > 100 µM

## Task What is its TGI for DLD-1 colon? Entry: O=C(CC(=O)N1N=C(c2ccccc2)C(N=Nc2ccc(C(=O)O)cc2)C1=O)Nc1ccc(F)cc1 (centres undefined)
## Result > 100 µM

## Task GET /values?readout=TGI&system=DLD-1 colon&item= CCC1C(C)c2c([nH]c3ccccc23)C2C(=O)N(c3ccccc3)C(=O)C21 (centres undefined)
## Result 34.9 µM

## Task Request - read-out TGI | tested on DLD-1 colon | compound CC(C)[C@@H]1C=C(c2ccccc2)c2ccccc2C1C(C#N)(C#N)C(C)C (some centres undefined)
## Result > 100 µM

## Task Request body: readout TGI, system DLD-1 colon, query `COc1ccc(/C=C2\Cc3ccccc3C2=O)cc1OC` . Return the value.
## Result > 100 µM

## Task For the record COc1cc([C@@H]2c3cc4c(cc3[C@@H](NC(=O)c3ccc(N)cc3)C3COC(=O)[C@@H]32)OCO4)cc(OC)c1O (some centres undefined) , what value of TGI is listed for DLD-1 colon?
## Result 35.4 µM

====

Would you kindly list TGI for each of these compounds?
# System: OVCAR-5 ovarian
# assay overview: NCI tumour cell line growth inhibition, 48 h

## Task Requested field: TGI. Item: `Oc1ccc2oc3ncc(Cl)c(-c4ccccc4)c3c2c1`
## Result > 100 µM

## Task Recorded TGI of CC[C@]12C=CCN3CCC4(c5cc(N=Nc6ccccc6)c(OC)cc5N(C)[C@H]4[C@@](O)(C(=O)OC)[C@@H]1OC(C)=O)[C@@H]32 (stereo not given in full) , please.
## Result 41.1 µM

## Task Form field: reported TGI of `COC(=O)C(=O)C1(CCC(C)=O)c2ccccc2-c2ccccc21`
## Result > 100 µM

## Task Record request: TGI value, item O=C(O)C(CCc1ccccn1)c1ccccc1 (stereo not given)
## Result > 100 µM

## Task Record request: TGI value, item COc1ccc(C2OC(=O)c3c2ccc2ccccc32)c(C)c1 (stereo not given)
## Result > 100 µM

## Task Tell me the measured TGI of CCOC(=O)c1nc2c3c(ncn2n1)Oc1c(c(-c2ccccc2)nn1-c1ccccc1)C3c1ccc(Cl)cc1 (stereo not given) , please.
## Result > 100 µM

## Task Can you look up the measured TGI of `Cc1c2c3cc(O)ccc3nc-2n(C)c2ccccc12` for me?
## Result 8.85 µM

## Task Would you kindly share the measured TGI for `COC(=O)c1sc(=S)sc1SCc1ccccc1CSc1sc(=S)sc1C(=O)OC` ?
## Result > 100 µM

## Task Recorded TGI for `O=C(/C=C/c1ccc(-c2ccccc2[N+](=O)[O-])o1)NCc1ccc(C(=O)NCCc2ccccc2)cc1` , please?
## Result > 100 µM

## Task Can you look up the measured TGI of `Cc1ccc(S(=O)(=O)N(/N=C(\N)Oc2ccc(Cl)cc2)C(=N)Oc2ccc(Cl)cc2)cc1` for me?
## Result > 100 µM

====

# Tested on: HCC-2998 colon
# assay overview: NCI tumour cell line growth inhibition, 48 h
property: TGI

## Task Please give the measured TGI for this compound: `Cc1cnc[nH]c1=O`
## Result > 100 µM

## Task // lookup TGI for `O=C(Nn1c(-c2ccccc2)nc2ccccc2c1=O)c1ccccn1`
## Result > 100 µM

## Task Which TGI value belongs to CCOC(=O)c1nc2c3c(ncn2n1)Oc1c(c(-c2ccccc2)nn1-c1ccccc1)C3c1ccc(Cl)cc1 (stereo unspecified) ?
## Result > 100 µM

## Task I'd like to know its TGI. The compound in question is `CCOC(=O)c1cc2c(OC(C)=O)ccc(OC(C)=O)c2s1`
## Result 22.2 µM

## Task Would you kindly share the measured TGI for `S=C(N/N=C\C=N/NC(=S)N1CCCCCC1)N1CCCCCC1` ?
## Result > 100 µM

## Task Please give the measured TGI for this compound: `Nc1ccc2c(c1)C(=O)c1ccccc1-2`
## Result > 100 µM

====

# Tested on: COLO 205 colon
# assay overview: NCI tumour cell line growth inhibition, 48 h
property: TGI (µM)
The reply should be a number in µM, with the unit left off.

## Task Any idea what TGI was measured for COc1cc([C@@H]2c3cc4c(cc3[C@@H](NC(=O)c3ccc(N)cc3)C3COC(=O)[C@@H]32)OCO4)cc(OC)c1O (some centres not stated) ?
## Result 28.4

## Task TGI lookup needed for `COc1ccc(/C(C)=C(\c2ccc(Cl)cc2)c2ccc(OCCN3CCCC3)cc2)cc1` , thanks.
## Result 7.74

## Task Given `Cc1csc2c1C(=O)c1ccsc1C2=O` , state its recorded TGI.
## Result 24.8

## Task State the recorded TGI for this entry: CN1/C(=C\C(I)C(I)C2=[N+](C)c3ccccc3C2(C)C)C(C)(C)c2ccccc21 (configuration not stated)
## Result 0.733

## Task Using the record for COc1ccc(SC2c3cc(OC)c(OC)cc3Oc3nc(N)c(C#N)c(N)c32)cc1 (configuration not stated) , report its TGI.
## Result 2.65

## Task What does the data say about its TGI? Entry: `CCOC(=O)c1cc2c(OC(C)=O)ccc(OC(C)=O)c2s1`
## Result 4.81

## Task If you can, please state the reported TGI value of `CCN(CC)CCN1C(=O)c2c(c(C)c3c(oc4cc(O)ccc43)c2C)C1=O` .
## Result 5.77

## Task Form field: reported TGI of `Cn1c2c([N+](=O)[O-])[se]nc2c(=O)n1-c1ccc([N+](=O)[O-])cc1`
## Result 4.23

## Task Need TGI of `Cn1nc(C(F)(F)F)c(-c2ccc(Cl)c(C(F)(F)F)c2)c1-c1ccc(OCc2ccc(Cl)cc2)cc1O` , thanks.
## Result 4.45

## Task Find the recorded TGI belonging to `CCOC(=O)c1sc(-c2ccc(OS(=O)(=O)c3cccs3)c(C=O)c2)nc1C` and report it.
## Result 3.9

====

# Test system: HS 578T breast
# assay overview: NCI tumour cell line growth inhibition, 48 h; in the data active = GI50 below about 0.43 µM; inactive = the rest
Permitted responses: 1 (active), -1 (inactive)

## Task // outcome(item) with item = `Oc1ccc2oc3ncc(Cl)c(-c4ccccc4)c3c2c1`
## Result -1

## Task Hey, what did the test say about `Cn1c2ccccc2c(=Nc2ccccc2)c2c3ccccc3[nH]c21` ?
## Result -1

## Task Hey, what did the test say about `O=C(NCc1cccnc1)/C(=C\c1ccc(Br)cc1)S(=O)(=O)c1ccccc1` ?
## Result -1

## Task For this compound, state the assay outcome: COc1cc(C)c(C(=O)O[C@H]2[C@H](O[C@H]3[C@@H](O)COC(O[C@H]4C[C@H]5[C@@H]6CC=C7C[C@@H](O)CC[C@]7(C)[C@H]6CC[C@]5(C)[C@H]4[C@H](C)C(=O)CCC(C)C)[C@@H]3OC(C)=O)OC[C@@H](O)[C@@H]2O)c(C)c1 (some centres undefined)
## Result 1

## Task Call for entry `COc1ccc(-c2ccc3c(NC(=O)C4CC4)n[nH]c3n2)cc1` :
## Result -1

## Task Please share the test call associated with `Cc1ccc2c(c1)C(=O)c1c-2n(CCCN)c(=O)c2cc([N+](=O)[O-])ccc12` .
## Result -1

## Task Which result was noted for this compound in the test: `CN(C)CCCNc1nn2c(=O)c3ccccc3nc2c2ccccc12`
## Result -1

## Task # outcome recorded in this test, key = CC(CN=C(CC(=O)c1ccc(Br)cc1)c1ccccc1)N=C(CC(=O)c1ccc(Br)cc1)c1ccccc1 (centres undefined)
## Result -1

## Task Could you kindly confirm the outcome this assay logged for `S=c1nc(-c2ccccc2)oc(=NC2CCCCC2)n1C1CCCCC1` ?
## Result -1

## Task So what was the verdict on `COc1ccc(OC)c(-c2nc3sccn3c2/C=C2/C(=O)Nc3ccc(Cl)cc32)c1` in this test?
## Result -1

## Task How was C=C(C=O)C1CC(=O)C(C(=O)OC)[C@@H]2O[C@@](C)(CC2=O)C[C@@H]2OC(=O)[C@]3(O[C@@H]23)[C@@H](C(=O)OC)C1 (some centres undefined) classified in this test?
## Result -1

## Task Assay outcome for `COc1cc(-c2cc(-c3ccc(N(C)C)cc3)nc(N3CCOCC3)c2C#N)cc(OC)c1OC` : what was it?
## Result -1

## Task Assay outcome for CC(=O)OCC1OC(OC2C(COC(C)=O)OC(OCCC[S-])C(OC(C)=O)C2OC(C)=O)C(OC(C)=O)C(OC(C)=O)C1OC(C)=O.[Au+].c1ccc(CN2[CH-]N(Cc3ccccc3)C(c3ccccc3)=C2c2ccccc2)cc1 (centres undefined) : what was it?
## Result -1

## Task What is the recorded call for this compound in the test? C#CCN1C(=O)/C(=c2\sc3n(c2=O)C2C(NN=3)N(CC)C(=O)N2CC)c2ccccc21 (centres undefined)
## Result 1
